- System: T1, DGI-2 (UniProt Q15004 1-111, limits assumed)
- T1 construct: Soluble recombinant DGI-2 made by in vitro translation (RTS, pIVEX2.3-MCS vector) and coated on plates for the ELISA; vector tag not described; also called KIAA0101; DGI-2 polypeptide
- T1 sequence (looked up): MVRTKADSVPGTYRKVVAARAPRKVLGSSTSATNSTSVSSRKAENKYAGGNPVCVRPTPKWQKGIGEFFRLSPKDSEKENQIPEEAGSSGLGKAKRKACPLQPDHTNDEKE
- Assay Details: phage ELISA, coated DGI-2
No end group written: not given here.
Measured Metric: binding result

| Binder | Measured Metric | Value Reported |
| --- | --- | --- |
| SSVWATWGSDLRTFGSVGFL (on M13 phage, pIII fusion with E-tag) [DGI-2-20F-PP-C7] | binding result | binds |
| ACSVGTALVFPQRWWYLGRS (on M13 phage, pIII fusion with E-tag) [DGL-2-20R-3-D6] | binding result | binds |
| RISVGQCGTSRCGGGRRGGG (not fully specified; cysteine pairing not given here, on M13 phage, pIII fusion with E-tag) [DGI-2-20F-PP-D1] | binding result | binds |
